Test system: L1210 leukemia ip in BDF1 mice, survival T/C
Assay: NCI In Vivo Anticancer Drug Screen. Data for tumor model L1210 Leukemia (intraperitoneal) in B6D2F1 (BDF1) mice
Conditions: endpoint: mean survival time; dose: 200.0 mg/kg/injection; schedule: Q01DX009 (ip); vehicle: Klucel (hydroxypropylcellulose) (HPC); higher = longer survival
Inconclusive results and toxic doses are left out.
Attribute Measured: T/C

Return reported T/C values for all items listed beneath this line.
1. CCOP(=O)(OCC)C(=O)N(CC)CC
2. CCCCC(CC)CC1CCCCC1O (configuration not stated)
3. O=C(Nc1ccc(Cl)c([N+](=O)[O-])c1)Nc1nc(C(F)(F)F)cc(=O)[nH]1
4. O=C(COc1cccc([N+](=O)[O-])c1)Nc1ccc(S(=O)(=O)F)cc1

1: 90 % of control; 2: 93 % of control; 3: 95 % of control; 4: 100 % of control

Return reported T/C values for all items listed beneath this line.
1. CC[N+]12CC=C(CO)C1C(O)CC2 (configuration not stated)
2. CCOc1cc(/C=N/NC(=S)Nc2ccccc2)ccc1O
3. C=CCOc1ccc2c(C)cc(=O)oc2c1C
4. O=C(NCCCl)Nc1ccc(Cl)c(Cl)c1
5. CCOc1ccccc1NC(=O)Nc1ccccc1C(F)(F)F
6. CCC(C#N)(c1ccccc1)c1ccccc1
7. CCOC(=O)c1cnc(=S)[nH]c1N
8. CCN(C(=O)c1ccc(C(=O)N(CC)c2cccc(C)c2)cc1)c1cccc(C)c1

1. 95 % of control
2. 105 % of control
3. 96 % of control
4. 98 % of control
5. 96 % of control
6. 94 % of control
7. 93 % of control
8. 89 % of control
